Target: ER (Homo sapiens, UniProt P03372)
Construct: endogenous in cells; probably T47D or MCF-7
Method Description: In-cell western blot analysis, relative ER percentage (compounds B1-B126)
Assay type: cell-based
Measurement Context: ER degradation, 16 hours, read-out: ICW DC50
Collected DC50 values appear next to each entry.

These solved cases illustrate the format of a correct answer.
{"Molecule": "C[C@@H]1Cc2c(ccc3[nH]ncc23)[C@@H](c2c(F)cc(NC3CN(CC(=O)N4CCN5c6ccc7c(c6OC[C@H]5C4)CN(C4CCC(=O)NC4=O)C7=O)C3)cc2F)N1CC(F)F (stereo partly drawn)", "Target": "ER (Homo sapiens, UniProt P03372)", "DC50": "< 10 nM"}
{"Molecule": "C[C@H]1Cc2c(ccc3[nH]ncc23)[C@H](c2cnc(N3CC4(CCC(CN5CCN6c7ccc8c(c7OC[C@@H]6C5)CN([C@@H]5CCC(=O)NC5=O)C8=O)CC4)C3)nc2)N1CC(F)(F)F", "Target": "ER (Homo sapiens, UniProt P03372)", "DC50": "< 10 nM"}
{"Molecule": "C[C@@H]1Cc2c(ccc3[nH]ncc23)[C@@H](c2c(F)cc(NC3CC4(C3)CN(CC(=O)N3Cc5cc6c(cc5C3)C(=O)N(C3CCC(=O)NC3=O)C6=O)C4)cc2F)N1CC(F)F (stereo partly drawn)", "Target": "ER (Homo sapiens, UniProt P03372)", "DC50": "10 to 100 nM"}

**Query** Note down DC50 recorded for COc1cc(N2CCC3(CC2)OCC(CN2CCN4c5ccc6c(c5OC[C@@H]4C2)CN([C@@H]2CCC(=O)NC2=O)C6=O)CO3)ccc1[C@@H]1c2ccc3[nH]ncc3c2C[C@@H](C)N1CC(F)F
**Result** < 10 nM

**Query** Supply recorded DC50 for C[C@@H]1Cc2c(ccc3[nH]ncc23)[C@@H](c2c(F)cc(N3CC4(CCN(CC(=O)N5CCN6c7cc8c(cc7OC[C@@H]6C5)C(=O)N(C5CCC(=O)NC5=O)C8)C4)C3)cc2F)N1CC(F)F (stereo partly drawn) here.
**Result** < 10 nM

**Query** For the molecule C[C@H]1Cc2c(ccc3[nH]ncc23)[C@H](c2ccc(N3CC4(CCC(CN5CCN6c7ccc8c(c7OC[C@@H]6C5)CN([C@@H]5CCC(=O)NC5=O)C8=O)CC4)C3)cn2)N1CC(F)(F)F , report DC50.
**Result** < 10 nM
